# RUN_DESCRIPTION: Cytotoxicity against human Huh5-2 cells assessed as reduction in cell viability measured after 3 days by CellTiter 96 AQueous One Solution Cell Proliferation assay
# Assay type: cell-based, Huh-5-2
MEASURED_PARAMETER: CC50 at 72 h

Study these solved cases before continuing.
| TEST_SMILES | VALUE_REPORTED |
| --- | --- |
| CCOC(=O)c1csc([C@H]2[C@@H](COC)C[C@@](CC(C)C)(C(=O)O)N2C(=O)c2ccc(C(C)(C)C)c(OC)c2)n1 | 200 µM |
| CC[C@H]1[C@@H](COC)C[C@@](CC(C)C)(C(=O)O)N1C(=O)c1ccc(C(C)(C)C)c(OC)c1 | 200 µM |

Input C=CCOC[C@H]1[C@@H](COC)C[C@@](CC(C)C)(C(=O)O)N1C(=O)c1ccc(C(C)(C)C)c(OC)c1 . Output CC50 at 72 h: > 120 µM

Input COC[C@H]1C[C@@](CC(C)C)(C(=O)O)N(C(=O)c2ccc(C(C)(C)C)c(OC)c2)[C@H]1CN=[N+]=[N-] . Output CC50 at 72 h: > 120 µM

Input COC[C@H]1C[C@@](CC(C)C)(C(=O)O)N(C(=O)c2ccc(C(C)(C)C)c(OC)c2)[C@H]1CF . Output CC50 at 72 h: > 120 µM

Input COC[C@H]1C[C@@](CC(C)C)(C(=O)O)N(C(=O)c2ccc(C(C)(C)C)c(OC)c2)[C@H]1CNC(C)=O . Output CC50 at 72 h: > 120 µM
